biological target: human IL-6 (mature hIL-6) (human, UniProt P05231 30-212); assay: cell-based or functional assay
Sequence (P05231 30-212): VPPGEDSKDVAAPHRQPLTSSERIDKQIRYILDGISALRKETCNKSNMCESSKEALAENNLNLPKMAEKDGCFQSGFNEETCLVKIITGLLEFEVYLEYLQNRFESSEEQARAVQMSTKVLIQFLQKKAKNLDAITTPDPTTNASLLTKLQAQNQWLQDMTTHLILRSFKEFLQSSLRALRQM
Test readout: Reporter gene-assay [pM] (pM)
The answer is to be given in pM; state only the numeric part.

Check out these entries, answers already filled in.
1) Polypeptide_35 (VHH, VHH_1.10 with C-terminal His tag extension E1; also called [VHH_1.10]-E1) VHH: QVQLVESGGGLVQAGGSLRLSCTASGGTFGEYAMAWFRQAPGKEREFVTDIGESGGTWYADSVKGRFTISRDNAKNTVYLQMNSLRPEDTAVYYCAADSYGVGGGAERYYDSWGQGTQVTVSS :: 24.6
2) Polypeptide_10 (VHH, VHH_2.10 with C-terminal His tag extension E1; also called [VHH_2.10]-E1) VHH: QVQLQESGGGLVQAGGSLRLSCTVSGRTFSTYAMGWFRQAPGKEREFVADINWNSDNIWYADSVKGRFTISRDNAKNVMYLQMNSLKPEDTAVYYCAADSYGVGGGKEEYYDSWGQGTQVTVSS :: 114
3) Polypeptide_3 (VHH, VHH_2.3 with C-terminal His tag extension E1; also called [VHH_2.3]-E1) VHH: QVQLQESGGGLVQAGGSLRLSCTTSGRTFSSYAMGWFRQAPGKEREFVADIGENADNRWYAHSVKGRFTISRDNAKNTVYLQMNSLKPEDTAVYYCAADRYGVGGGAQGYYDSWGQGTQVTVSS :: 39.8

Now for another entry.
**Q:** GET /values?readout=Reporter gene-assay [pM]&item= Polypeptide_4 (VHH, VHH_2.4 with C-terminal His tag extension E1; also called [VHH_2.4]-E1) VHH: QVQLQESGGGLVQAGGSLRLSCTVSGRTFSTYAMGWFRQAPGKEREFVADINWNSDNLWYADSVKGRFTISRDNAKNTMYLQMNSLKPEDTAVYYCAVDSYGVGGGKPEYYDSWGQGTQVTVSS
**A:** 198
